- Tested on: monoclonal antibody specific for human alpha-synuclein at position 115-122 (AFFiRiS3/9, A509)
- procedureSummary: In vitro binding assay (ELISA): peptide-BSA on plate, incubated with the screening monoclonal antibody
- Design: species or system mouse
- testParameters: FIG. 1 and FIG. 2
readoutName: binding to / detection by the monoclonal antibody in ELISA

sequenceText	assayResult
DMPVDPGSC [p4451]	are not detected
CDMPVDPGS [p4450]	are not detected

----------
- System: monoclonal antibody specific for human alpha-synuclein at position 115-122 (AFFiRiS3/9, A509)
- procedureSummary: In vitro inhibition assay (ELISA): peptide competes with binding of the antibody to the coated original epitope
- Parameters: species or system mouse
- testParameters: competition code; OD at 40 μg peptide compared to original peptide
readoutName: Inhibition

sequenceText	assayResult
CDRPVTPDN [p4491]	7
